Test system: RPTEC
experiment summary: MTS assay, cytotoxicity (growth inhibition) on normal cells RPTEC
Format: cell-based
assay conditions: Homo sapiens, RPTEC, read-out: RPTEC IC50
measured endpoint: pIC50
Give only the number. pIC50 is defined as minus log10 of concentration in molar units.

Worked cases, answers included:
>>> observed_result("CCCNC/C=C/CNC1=C2CC(C)CC(OC)C(O)C(C)/C=C(\\C)C(OC(N)=O)C(OC)/C=C\\C=C(/C)C(=O)NC(=CC1=O)C2=O (stereo not shown)")
5.40
>>> observed_result("COC1/C=C\\C=C(/C)C(=O)NC2=CC(=O)C(NCCCN(C)CCCNC3=C4CC(C)CC(OC)C(O)C(C)/C=C(\\C)C(OC(N)=O)C(OC)/C=C\\C=C(/C)C(=O)NC(=CC3=O)C4=O)=C(CC(C)CC(OC)C(O)C(C)/C=C(\\C)C1OC(N)=O)C2=O (stereo not shown)")
6.00
>>> observed_result("COC1/C=C\\C=C(/C)C(=O)NC2=CC(=O)C(NCCN(C)CCNC3=C4CC(C)CC(OC)C(O)C(C)/C=C(\\C)C(OC(N)=O)C(OC)/C=C\\C=C(/C)C(=O)NC(=CC3=O)C4=O)=C(CC(C)CC(OC)C(O)C(C)/C=C(\\C)C1OC(N)=O)C2=O (stereo not shown)")
6.00

Please find the next compound below.
Task: State its pIC50: COC1/C=C\C=C(/C)C(=O)NC2=CC(=O)C(NCCCNCCCNC3=C4CC(C)CC(OC)C(O)C(C)/C=C(\C)C(OC(N)=O)C(OC)/C=C\C=C(/C)C(=O)NC(=CC3=O)C4=O)=C(CC(C)CC(OC)C(O)C(C)/C=C(\C)C1OC(N)=O)C2=O (stereo not shown)
Output: 5.40
